target: tumor necrosis factor alpha (TNFα) (human, UniProt P01375 77-233); assay: affinity by IC50 ELISA (so named in paragraph 380)
Sequence (P01375 77-233 limits assumed): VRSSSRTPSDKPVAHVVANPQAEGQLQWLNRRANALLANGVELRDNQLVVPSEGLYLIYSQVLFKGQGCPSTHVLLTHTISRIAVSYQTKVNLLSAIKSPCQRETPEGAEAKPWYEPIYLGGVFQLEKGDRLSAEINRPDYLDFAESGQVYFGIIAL
readout.label: Affinity (nM)
Write the value in nM as a bare number.

• MAb 815 (antibody, V domains shown, IgG1/kappa, CHO; also called H1192/L311) VH: EVQLLESGGGLIQPGGSLRLSCAASGFTVSSNYMSWVRQAPGKGLEWVSVIYSGGRTYYADSVKGRFTISRDSSKNTLYLQMNSLRAEDTAVYYCARNYYGSTYDYWGQGTLVTVSS VL: EIVLTQSPVTLSVPPGERASLSCRASQNIYTAVAWYQQKPGQAPRLLIYGASTRATGIPARFSGGGSGTDYTLTISSLESEDFAVYHCQQYHAWPLTFGGGTKLEIK = 0.36

Value of Affinity reported for the binder MAb 813 (antibody, V domains shown, IgG1/kappa, CHO; also called H1192/L309) VH: EVQLLESGGGLIQPGGSLRLSCAASGFTVSSNYMSWVRQAPGKGLEWVSVIYSGGRTYYADSVKGRFTISRDSSKNTLYLQMNSLRAEDTAVYYCARNYYGSTYDYWGQGTLVTVSS VL: EIVLTQSPVTLSVPPGERASLSCRASQNIYTAVAWYQQKPGQAPRLLIYGASTRATGIPARFSGGGSGTDYTLTISSLESEDFAVYHCQQYMSWPLTFGGGTKLEIK is 0.42

Per the records, this binder ( MAb 812 (antibody, V domains shown, IgG1/kappa, CHO; also called H1192/L308) VH: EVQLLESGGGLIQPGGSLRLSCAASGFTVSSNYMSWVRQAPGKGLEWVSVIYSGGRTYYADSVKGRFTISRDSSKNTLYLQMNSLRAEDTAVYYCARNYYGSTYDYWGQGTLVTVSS VL: EIVLTQSPVTLSVPPGERASLSCRASQNIYTAVAWYQQKPGQAPRLLIYGASTRATGIPARFSGGGSGTDYTLTISSLESEDFAVYHCQQYFSWPLTFGGGTKLEIK ) has Affinity equal to 0.32

Sample MAb 855 (antibody, V domains shown, IgG1/kappa, CHO; also called H1192/L332) VH: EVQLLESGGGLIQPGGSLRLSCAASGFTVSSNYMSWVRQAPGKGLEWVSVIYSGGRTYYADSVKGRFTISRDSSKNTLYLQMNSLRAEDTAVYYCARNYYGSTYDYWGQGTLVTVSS VL: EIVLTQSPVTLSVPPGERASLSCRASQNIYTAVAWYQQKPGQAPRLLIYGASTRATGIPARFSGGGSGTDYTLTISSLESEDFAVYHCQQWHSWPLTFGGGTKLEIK ; Affinity observed: 0.25

Entry source: patent US20080267974A1
